# Assay target: T1, MICB005.His (human MICB*005 alpha 3 domain, His tagged) (human)
# T1 construct: also called huMICB*005 alpha 3-his
# T1 chain: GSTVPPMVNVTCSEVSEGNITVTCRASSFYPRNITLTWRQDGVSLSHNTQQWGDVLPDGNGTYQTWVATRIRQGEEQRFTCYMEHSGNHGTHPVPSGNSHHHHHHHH
# Method summary: SPR, antibody captured;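 note: SPR with antibody held by surface-bound anti-Fc while His-tagged alpha three domains flow over, Kd derived by fitting a one-to-one binding model to sensograms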
Measured Kd determines class: small value = under 3 nM, mid value = from 3 nM up to 10 nM, large value = 10 nM and over

13A9 (antibody, V domains shown, Mouse variable domains; constant regions differ by assay) VH: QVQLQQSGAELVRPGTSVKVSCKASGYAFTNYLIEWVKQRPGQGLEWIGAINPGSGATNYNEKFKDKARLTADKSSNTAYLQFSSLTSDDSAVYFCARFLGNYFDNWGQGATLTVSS VL: DIQMTQSPASLSASVGETVTITCRASGNIHSYLAWYQQKQGKSPQLLVYYAETLADGVPSRFSGRGSGTQYSLKINSLQPEDFGSYFCQQFWTTPYTFGGGTKVEIK	small value

Lab log: 7A3.1.9 (antibody, V domains shown, Mouse hybridoma antibody; constant regions differ by assay) VH: QVQLKESGPGLVAPSQSLSITCTVSGFALTGSGVNWVRQPPGKGLEWLGMIWGDGNTDYNSALKSRLSISKDNSKSQIFLKMNSLQTDDTARYYCARGAHYGKRWYFDVWGAGTTVTVSS VL: DIQMTQTTSSLSASLGDRVTISCSASQGINNYLNWYQQKPDGTVKLLIYYTSSLPSGVPSRFSGSGSGTDYSLTISNLEPEDIATYYCQQYSKLPPTFGGGTKVEIK — assign Kd category
large value

Please let me know in which category the item 18G3 (antibody, V domains shown, Mouse variable domains; constant regions differ by assay) VH: VQLQESGPGLVKPSQSLSLTCNVTGYSITGDYAWNWIRQFPGNKLEWIGYIGYTGSTTYNPSLKSRVSITRDTSKNQFFLQLNSVTPEDTATYYCARWRNWAMDYWGLGTSVTVSS VL: DIQMTQTPSSLSASLGDRVTISCRANQDISHYLNWYQQKPDGAVKLLIYYTSRIHSGVPSRFSGSGSGTDYSLTIANLEQEDVATYFCQQGNTPPTTFGGGTKVEIK belongs.
mid value

Hello team, could you let me know which band the following binder falls into: 6F8.7 (antibody, V domains shown, Mouse hybridoma antibody; constant regions differ by assay) VH: DVQLQGSGPGLVKPSQSLSLTCSVTGYSITNDYYWNWIRQFPGNKLEWMGFISFGGSNNYNPSLKNRISITRDTSKNQFFLKLSSVTTEDTATYYCARYDGRGAWFAYWAQGTLVTVSA VL: DIQMTQSPASLSASVGETVTITCRASGNIHNYLAWYQQKQGKSPQLLVYDAITLADGVPSRFSGSGSGTQYSLKINSLQPEDFGNYYCQHFWSFPLTFGAGTKVEIK
large value

Entry 32D2 (antibody, V domains shown, Mouse hybridoma antibody; constant regions differ by assay) VH: DVHLVESGGGLVQPGGSRKLSCAASGFTFNTFGMNWVRQAPEKGLEWVAYINSGSNTIYYADTVKGRFTISRDNPKNTLFLQMTSLRSEDTAMYYCTRWEPVTGGFSYWGQGTLVTVSA VL: QIVLTQSPAFKSSSLGERVTMTCTASSSISSSYLHWYQQKPGSSPKLWIYTTSNLASGVPARFSGSGSGTSYSLTISTMEAEDAATYYCHQHHRSPFTFGSGTKVEIK belongs to which category?
small value

Origin of measurements: patent US20200055939A1
